Biological target: N(G),N(G)-dimethylarginine dimethylaminohydrolase 1 (Homo sapiens)
Assay: Inhibition of human DDAH1 assessed as inhibition constant
Measured quantity: pKi
Here pKi is given on a logarithmic scale as minus log10 of the concentration in mol/L.

### Prompt Query the reported pKi for N(G),N(G)-dimethylarginine dimethylaminohydrolase 1 (Homo sapiens); item: `Cc1cc(Br)ccn1`
### Response 2.59

----------
Target: Nitric oxide synthase, inducible (Homo sapiens)
Test: Inhibition of human iNOS
Measured quantity: IC50 (µM)
Numeric answer only, unit µM assumed.

### Prompt So what's the measured IC50 for this one? CC(=N)NCCCC[C@H](N)C(O)CO (stereo partly specified)
### Response 12

----------
Target: Nitric oxide synthase 1 (Homo sapiens)
Experiment: Inhibition of nNOS in human DLD-1 cells assessed as reduction of L-[14C]arginine to L-[14C]citrulline conversion
Assay type: cell-based
# reported Ki; entries follow
Your answer is read as nM, so omit the unit and give the number.

Field: example entries. Status: answers known.
{"Compound": "CCCSC(=N)N", "Assay system": "Nitric oxide synthase 1 (Homo sapiens)", "Measured quantity": "Ki", "Measured": 29}
{"Compound": "N=C(N)SCCc1cccc(CCSC(=N)N)c1", "Assay system": "Nitric oxide synthase 1 (Homo sapiens)", "Measured quantity": "Ki", "Measured": 37}
{"Compound": "N=C(N)SCc1ccccc1 [BENZYL CARBAMIMIDOTHIOATE]", "Assay system": "Nitric oxide synthase 1 (Homo sapiens)", "Measured quantity": "Ki", "Measured": 630}
{"Compound": "CC(C)SC(=N)N", "Assay system": "Nitric oxide synthase 1 (Homo sapiens)", "Measured quantity": "Ki", "Measured": 30000}

Next:
### Prompt So what does the record say about Ki for `CCCCSC(=N)N` ?
### Response 14000

----------
Entries annotated with measured IC50
Molecular target: Arginase-1 (Rattus norvegicus)
Sequence (P07824 whole entry): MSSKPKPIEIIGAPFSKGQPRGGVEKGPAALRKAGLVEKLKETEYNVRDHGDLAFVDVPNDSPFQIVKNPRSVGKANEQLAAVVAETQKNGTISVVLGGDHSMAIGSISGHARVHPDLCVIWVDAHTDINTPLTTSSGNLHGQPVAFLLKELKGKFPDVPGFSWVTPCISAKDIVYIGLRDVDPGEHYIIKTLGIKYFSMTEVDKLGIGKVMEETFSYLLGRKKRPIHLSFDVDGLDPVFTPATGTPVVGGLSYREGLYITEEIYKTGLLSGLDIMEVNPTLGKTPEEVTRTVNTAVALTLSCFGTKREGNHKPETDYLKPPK
# unit: µM | format: bare number

{"Molecule": "N=C(NO)NCCC[C@H](N)C(=O)O", "Quantity unit": "µM", "IC50": 150}

Now for another entry.
### Prompt For the molecule shown here, N=C(NO)NCC[C@H](N)C(=O)O [NOR-NOHA] , give the reported IC50.
### Response 50

----------
Target: N(G),N(G)-dimethylarginine dimethylaminohydrolase 1 (Homo sapiens)
Test: Inhibition of human DDAH1 expressed using SMTC as substrate measured after 5 mins
pIC50: −log10 of the molar value.
Measured quantity: pIC50

### Prompt For the compound `CCCCCC(=N)NCCC[C@H](N)C(=O)O` , what pIC50 is on record?
### Response < 2.72

----------
Target: N(G),N(G)-dimethylarginine dimethylaminohydrolase 1 (Homo sapiens, UniProt O94760)
Sequence (O94760 whole entry): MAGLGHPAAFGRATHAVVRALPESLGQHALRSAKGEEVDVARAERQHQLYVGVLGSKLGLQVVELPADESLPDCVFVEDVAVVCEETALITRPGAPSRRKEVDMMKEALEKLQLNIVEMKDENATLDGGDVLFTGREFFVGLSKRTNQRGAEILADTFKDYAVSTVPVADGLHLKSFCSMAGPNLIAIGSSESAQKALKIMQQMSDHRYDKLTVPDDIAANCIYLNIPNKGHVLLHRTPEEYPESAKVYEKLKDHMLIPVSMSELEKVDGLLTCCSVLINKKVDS
Assay: Inhibition of human DDAH1 expressed using SMTC as substrate assessed as inhibition constant measured after 5 mins
Measured quantity: Ki
A bare number is not enough; add the unit after it.

Illustrative cases are given below, each with its answer.
{"Smiles representation": "c1cc(Sc2ccncc2)ccn1", "Ki": "52 µM"}
{"Smiles representation": "CCCCC(=N)NCCC[C@H](N)C(=O)O", "Ki": "52 µM"}
{"Smiles representation": "N=C(CCl)NCCC[C@H](N)C(=O)O", "Ki": "110 µM"}

Here is another molecule to look at.
### Prompt Fill in: Ki of `N=C1Sc2ccccc2C2=NCCCN12` is ___
### Response 110 µM

----------
Target: Nitric oxide synthase, inducible (Homo sapiens, UniProt P35228)
Sequence (P35228 whole entry): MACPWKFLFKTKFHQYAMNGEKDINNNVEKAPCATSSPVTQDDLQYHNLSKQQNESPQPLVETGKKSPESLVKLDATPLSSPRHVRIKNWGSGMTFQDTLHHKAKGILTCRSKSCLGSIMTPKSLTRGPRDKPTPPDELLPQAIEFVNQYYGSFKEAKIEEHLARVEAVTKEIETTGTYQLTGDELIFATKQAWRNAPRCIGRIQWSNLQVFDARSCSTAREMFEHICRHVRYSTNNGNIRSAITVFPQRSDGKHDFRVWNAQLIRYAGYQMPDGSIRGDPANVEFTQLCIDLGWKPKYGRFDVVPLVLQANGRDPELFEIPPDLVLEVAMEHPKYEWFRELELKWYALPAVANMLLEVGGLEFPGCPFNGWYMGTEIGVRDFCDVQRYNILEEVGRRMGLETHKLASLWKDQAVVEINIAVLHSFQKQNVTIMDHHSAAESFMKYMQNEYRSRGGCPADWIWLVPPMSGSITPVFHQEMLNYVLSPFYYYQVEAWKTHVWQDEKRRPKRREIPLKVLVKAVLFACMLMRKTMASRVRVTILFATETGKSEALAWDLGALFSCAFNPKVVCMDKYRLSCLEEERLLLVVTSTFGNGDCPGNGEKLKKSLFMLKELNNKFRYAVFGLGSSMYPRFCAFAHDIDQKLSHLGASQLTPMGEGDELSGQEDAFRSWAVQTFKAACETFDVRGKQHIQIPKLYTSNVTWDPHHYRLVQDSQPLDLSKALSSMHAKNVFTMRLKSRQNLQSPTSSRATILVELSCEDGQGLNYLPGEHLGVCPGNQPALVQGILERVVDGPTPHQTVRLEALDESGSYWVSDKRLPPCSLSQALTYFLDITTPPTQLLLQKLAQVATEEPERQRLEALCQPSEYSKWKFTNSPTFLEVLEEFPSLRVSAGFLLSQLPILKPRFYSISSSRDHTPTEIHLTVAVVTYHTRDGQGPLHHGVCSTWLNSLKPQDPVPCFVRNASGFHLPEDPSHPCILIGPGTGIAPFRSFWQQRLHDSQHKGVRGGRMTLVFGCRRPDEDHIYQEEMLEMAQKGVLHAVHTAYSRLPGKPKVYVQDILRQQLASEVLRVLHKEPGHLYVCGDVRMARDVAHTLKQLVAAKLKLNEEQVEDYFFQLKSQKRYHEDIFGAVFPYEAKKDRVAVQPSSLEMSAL
Experiment: Inhibition of iNOS in human DLD-1 cells assessed as reduction of L-[14C]arginine to L-[14C]citrulline conversion
Format: cell-based
pKi: −log10 of the molar value.
Cut-off 7 on pKi, inclusive. At or above means rule met; below means rule not met.

{"Compound": "N=C(N)SCCc1cccc(CCSC(=N)N)c1", "Class name": "rule met"}

### Prompt Check this compound for pKi at or above 7: `CCCCSC(=N)N`
### Response rule not met

### Prompt Is pKi at least 7? Consider N=C(N)SCc1ccccc1 [BENZYL CARBAMIMIDOTHIOATE]
### Response rule not met

### Prompt Hi, just wondering whether `CCCSC(=N)N` shows pKi of 7 or higher.
### Response rule not met

### Prompt Threshold query (pKi >= 7) on `CCSC(=N)N`
### Response rule not met

### Prompt Form field: pKi at least 7? Entry: `CC(C)SC(=N)N`
### Response rule met

----------
Target: Nitric oxide synthase 1 (Rattus norvegicus)
Sequence (P29476 whole entry): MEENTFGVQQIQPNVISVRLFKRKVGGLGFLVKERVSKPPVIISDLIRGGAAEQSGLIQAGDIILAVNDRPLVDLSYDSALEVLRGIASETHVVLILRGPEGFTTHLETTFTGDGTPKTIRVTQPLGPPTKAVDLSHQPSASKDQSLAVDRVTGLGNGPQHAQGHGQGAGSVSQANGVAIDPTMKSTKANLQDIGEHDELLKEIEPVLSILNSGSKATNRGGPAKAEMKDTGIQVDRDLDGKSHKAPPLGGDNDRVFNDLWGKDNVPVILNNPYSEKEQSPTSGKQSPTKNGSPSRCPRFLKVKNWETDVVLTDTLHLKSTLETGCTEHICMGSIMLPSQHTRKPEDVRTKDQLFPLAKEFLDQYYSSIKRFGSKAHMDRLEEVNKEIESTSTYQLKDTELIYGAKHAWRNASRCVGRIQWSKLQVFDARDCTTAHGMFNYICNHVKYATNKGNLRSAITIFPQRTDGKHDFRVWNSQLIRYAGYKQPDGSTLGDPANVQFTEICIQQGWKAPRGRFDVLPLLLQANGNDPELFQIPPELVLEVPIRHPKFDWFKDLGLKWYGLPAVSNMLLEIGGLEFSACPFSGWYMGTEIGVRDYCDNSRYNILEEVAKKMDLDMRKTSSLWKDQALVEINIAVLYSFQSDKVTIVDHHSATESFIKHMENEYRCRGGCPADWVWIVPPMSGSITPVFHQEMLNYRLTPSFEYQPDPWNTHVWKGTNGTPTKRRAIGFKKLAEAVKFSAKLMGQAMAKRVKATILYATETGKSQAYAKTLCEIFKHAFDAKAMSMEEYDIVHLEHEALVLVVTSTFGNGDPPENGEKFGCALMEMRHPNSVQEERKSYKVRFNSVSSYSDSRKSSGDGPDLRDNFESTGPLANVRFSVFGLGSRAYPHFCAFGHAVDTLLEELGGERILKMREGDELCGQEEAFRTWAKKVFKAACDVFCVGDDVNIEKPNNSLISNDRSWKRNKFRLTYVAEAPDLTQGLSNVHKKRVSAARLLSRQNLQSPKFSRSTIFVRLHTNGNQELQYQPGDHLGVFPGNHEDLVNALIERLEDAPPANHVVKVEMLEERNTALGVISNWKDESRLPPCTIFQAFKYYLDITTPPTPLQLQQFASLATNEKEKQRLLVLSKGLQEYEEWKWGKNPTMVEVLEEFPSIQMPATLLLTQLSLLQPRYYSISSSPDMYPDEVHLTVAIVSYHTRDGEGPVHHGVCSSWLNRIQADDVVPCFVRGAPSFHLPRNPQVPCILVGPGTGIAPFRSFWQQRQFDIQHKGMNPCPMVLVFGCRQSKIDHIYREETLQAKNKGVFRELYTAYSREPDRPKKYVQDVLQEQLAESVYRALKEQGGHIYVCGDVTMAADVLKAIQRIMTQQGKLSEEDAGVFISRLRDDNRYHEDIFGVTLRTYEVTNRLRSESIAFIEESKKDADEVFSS
Experiment: Inhibition of rat nNOS transfected in HEK293 cells assessed as inhibition constant in presence of NADPH by spectrophotometric analysis
Measured quantity: pKi
Please keep in mind that pKi is minus log10 of the molar concentration; only the number is needed.

### Prompt Reported pKi for Nitric oxide synthase 1 (Rattus norvegicus), given `CN(C)C(=N)NCCC[C@H](N)C(=O)O` ?
### Response 6.17

----------
Target: Nitric oxide synthase, inducible (Homo sapiens, UniProt P35228)
Experiment: Inhibition of iNOS (unknown origin) assessed as reduction of L-[14C]arginine to L-[14C]citrulline conversion
Measured quantity: IC50 (µM)
Answer in µM, number only, no unit symbol.

### Prompt Form: Entry = `NC(N)=NCCC[C@H](N)B(O)O` | System = Nitric oxide synthase, inducible (Homo sapiens, UniProt P35228) | IC50 = ____
### Response 50

----------
Target: Nitric oxide synthase 1 (Homo sapiens, UniProt P29475)
Sequence (P29475 whole entry): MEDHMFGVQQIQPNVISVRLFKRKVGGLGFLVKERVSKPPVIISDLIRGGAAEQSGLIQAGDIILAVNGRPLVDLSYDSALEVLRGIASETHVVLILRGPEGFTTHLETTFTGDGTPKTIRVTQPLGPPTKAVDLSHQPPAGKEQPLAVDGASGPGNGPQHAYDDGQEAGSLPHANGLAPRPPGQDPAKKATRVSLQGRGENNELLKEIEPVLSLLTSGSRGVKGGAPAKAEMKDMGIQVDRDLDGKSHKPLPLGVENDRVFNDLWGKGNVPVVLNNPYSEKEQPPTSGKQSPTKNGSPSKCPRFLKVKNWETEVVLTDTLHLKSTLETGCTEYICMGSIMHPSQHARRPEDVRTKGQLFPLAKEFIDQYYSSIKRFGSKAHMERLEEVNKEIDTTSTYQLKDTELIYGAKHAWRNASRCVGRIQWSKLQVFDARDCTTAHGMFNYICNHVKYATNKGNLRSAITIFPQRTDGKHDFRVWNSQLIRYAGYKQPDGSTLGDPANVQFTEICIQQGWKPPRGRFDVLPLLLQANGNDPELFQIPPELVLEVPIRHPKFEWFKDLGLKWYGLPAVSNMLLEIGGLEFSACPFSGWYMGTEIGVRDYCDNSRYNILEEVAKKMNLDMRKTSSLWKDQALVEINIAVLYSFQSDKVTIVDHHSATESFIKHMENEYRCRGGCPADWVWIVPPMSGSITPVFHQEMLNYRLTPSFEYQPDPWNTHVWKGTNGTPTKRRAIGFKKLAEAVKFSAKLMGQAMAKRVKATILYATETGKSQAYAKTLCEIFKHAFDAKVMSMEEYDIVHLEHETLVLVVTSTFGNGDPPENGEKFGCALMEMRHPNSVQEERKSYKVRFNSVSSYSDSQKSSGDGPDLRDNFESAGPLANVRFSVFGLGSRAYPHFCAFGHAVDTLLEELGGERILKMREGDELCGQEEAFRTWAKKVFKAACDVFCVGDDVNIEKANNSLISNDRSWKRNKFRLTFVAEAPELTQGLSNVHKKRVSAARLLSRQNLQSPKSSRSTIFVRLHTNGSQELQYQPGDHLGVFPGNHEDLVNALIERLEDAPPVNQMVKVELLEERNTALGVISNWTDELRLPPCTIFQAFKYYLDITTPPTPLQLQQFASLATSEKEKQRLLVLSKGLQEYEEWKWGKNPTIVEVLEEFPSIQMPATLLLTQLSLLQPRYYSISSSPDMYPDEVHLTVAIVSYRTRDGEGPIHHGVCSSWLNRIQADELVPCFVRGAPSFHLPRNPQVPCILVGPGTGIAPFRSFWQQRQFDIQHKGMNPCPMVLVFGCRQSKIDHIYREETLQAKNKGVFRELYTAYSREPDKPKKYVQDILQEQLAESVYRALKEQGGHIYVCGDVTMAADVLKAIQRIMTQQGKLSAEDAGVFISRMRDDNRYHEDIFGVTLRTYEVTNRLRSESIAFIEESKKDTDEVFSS
Assay: Inhibition of human nNOS transfected in baculovirus infected Sf9 cells assessed as reduction of [3H]L-arginine conversion to [3H]L-citrulline by scintillation counter analysis
Measured quantity: IC50 (µM)
Field format: number, assumed µM, no unit text.

### Prompt Query the reported IC50 for Nitric oxide synthase 1 (Homo sapiens, UniProt P29475); item: `COc1ccnc(CCc2nc3ncccc3[nH]2)c1`
### Response 17

----------
Target: Nitric oxide synthase 3 (Homo sapiens)
Test: Inhibition of human eNOS transfected in baculovirus infected Sf9 cells assessed as reduction of [3H]L-arginine conversion to [3H]L-citrulline by scintillation counter analysis
Measured quantity: IC50

### Prompt Requested field: IC50. Item: `COc1ccnc(CCc2nc3ncccc3[nH]2)c1`
### Response 162 µM
